Each entry below carries its reported inhibition.
- assayed_target: Cholinesterase (Equus caballus)
- procedure_summary: Inhibition of equine serum BuChE using butyrylthiocholine iodide as substrate at 10 uM preincubated for 5 mins followed by substrate addition by DTNB reagent based Ellman's method relative to control
- Type: cell-free
Provide the reading as a plain figure in %.

Here are 3 compounds together with their reported answers.
* COC(=O)/C=C/C(=O)Nc1cccc(OCCCCSC(=S)N2CCC(N3CCCCC3)CC2)c1 | 5.6
* COC(=O)/C=C/C(=O)Nc1cccc(OCCCSC(=S)N2CCCCC2)c1 | 13.2
* COC(=O)/C=C/C(=O)Nc1cccc(OCCCCSC(=S)N(C)C)c1 | 7.25

Moving on to another compound below.
Recorded result, COC(=O)/C=C/C(=O)Nc1cccc(OCCSC(=S)N2CCCCC2)c1 , inhibition: 12.8

* * *

- assayed_target: Acetylcholinesterase (Electrophorus electricus, UniProt O42275)
- Sequence (O42275 whole entry): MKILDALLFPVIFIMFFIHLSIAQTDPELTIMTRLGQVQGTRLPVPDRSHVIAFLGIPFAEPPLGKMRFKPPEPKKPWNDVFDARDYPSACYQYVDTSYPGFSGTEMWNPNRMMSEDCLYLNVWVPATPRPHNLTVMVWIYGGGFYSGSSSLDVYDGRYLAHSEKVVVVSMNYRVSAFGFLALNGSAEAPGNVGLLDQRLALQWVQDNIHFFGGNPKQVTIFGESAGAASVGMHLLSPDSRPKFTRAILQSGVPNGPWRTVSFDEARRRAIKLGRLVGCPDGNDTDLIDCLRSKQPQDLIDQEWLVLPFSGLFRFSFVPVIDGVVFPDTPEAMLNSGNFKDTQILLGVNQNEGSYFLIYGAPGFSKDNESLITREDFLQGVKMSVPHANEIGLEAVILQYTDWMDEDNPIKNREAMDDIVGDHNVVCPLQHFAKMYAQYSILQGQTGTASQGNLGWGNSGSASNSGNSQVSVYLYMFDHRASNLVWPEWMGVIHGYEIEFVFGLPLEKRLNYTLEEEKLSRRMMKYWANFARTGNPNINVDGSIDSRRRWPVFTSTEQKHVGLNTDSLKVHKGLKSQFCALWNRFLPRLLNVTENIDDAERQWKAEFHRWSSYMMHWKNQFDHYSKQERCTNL
- procedure_summary: Inhibition of electric eel AChE using acetylthiocholine iodide as substrate preincubated for 5 mins followed by substrate addition by DTNB reagent based Ellman's method
# Lookup of reported pIC50 keyed by entry
Quick note: pIC50 means taking -log10 of the concentration in moles per liter.

Examples with their reported pIC50 follow.
- COC(=O)/C=C/C(=O)Nc1cccc(OCCCCSC(=S)N2CCN(C)CC2)c1: 4.04
- COC(=O)/C=C/C(=O)Nc1cccc(OCCCCSC(=S)N2CCOCC2)c1: 4.13

Lookup result for COC(=O)/C=C/C(=O)Nc1cccc(OCCCCSC(=S)N(C)C)c1 ; measured pIC50: 4.25

// pIC50 value for COC(=O)/C=C/C(=O)Nc1cccc(OCCCCSC(=S)N2CCC(C)CC2)c1 : 4.71

Record CCN(CC)C(=S)SCCCCOc1cccc(NC(=O)/C=C/C(=O)OC)c1 . Reported pIC50: 4.95

Short answer for COC(=O)/C=C/C(=O)Nc1cccc(OCCCSC(=S)N2CCCCC2)c1 : pIC50 was 5.62

The recorded pIC50 for COC(=O)/C=C/C(=O)Nc1cccc(OCCCCSC(=S)N2CCCCC2C)c1 (stereo not given) is 7.06

# pIC50 of COC(=O)/C=C/C(=O)Nc1cccc(OCCCCCCSC(=S)N2CCCCC2)c1 = 4.54

Record COC(=O)/C=C/C(=O)Nc1cccc(OCCCCSC(=S)N2CCC(O)CC2)c1 . Reported pIC50: 4.12

Note to self: pIC50 recorded for COC(=O)/C=C/C(=O)Nc1cccc(OCCCCSC(=S)N2CCC(N3CCCCC3)CC2)c1 was 4.90

* * *

- assayed_target: Acetylcholinesterase (Electrophorus electricus, UniProt O42275)
- procedure_summary: Inhibition of electric eel AChE using acetylthiocholine iodide as substrate preincubated for 5 mins followed by substrate addition by DTNB reagent based Ellman's method
Doc: threshold 3 µM (exclusive). Items with IC50 beneath it return Y; others return N.

Please review the following examples before continuing.
• COC(=O)/C=C/C(=O)Nc1cccc(OCCSC(=S)N2CCCCC2)c1 = Y
• COC(=O)/C=C/C(=O)Nc1cccc(OCCCCSC(=S)N2CCCC2)c1 = N
• COC(=O)/C=C/C(=O)Nc1ccc(OCCCCSC(=S)N2CCCCC2C)cc1 (stereo unspecified) = Y
• COC(=O)/C=C/C(=O)Nc1cccc(OCCCCSC(=S)N2CCCCC2)c1 = Y
• COC(=O)/C=C/C(=O)Nc1cccc(OCCCCSC(=S)N2C(C)CCCC2C)c1 (stereo unspecified) = N

Input: Consider the molecule COC(=O)/C=C/C(=O)Nc1cccc(OCCCCCSC(=S)N2CCCCC2)c1 . Is its IC50 strictly less than 3 µM?
Output: N

* * *

Below, each entry is listed alongside its reported Papp at 18 h.
- procedure_summary: in vitro
- measurement_conditions: PAMPA
Note: unit ×10⁻⁶ cm/s is implicit; provide only the numeric part.

• CC(=O)[C@H]1CC[C@H]2[C@@H]3CCC4=CC(=O)CC[C@]4(C)[C@H]3CC[C@]12C [PROGESTERONE] = 11.2
• COC(=O)/C=C/C(=O)Nc1ccc(OCCCCSC(=S)N2CCCCC2C)cc1 (configuration not stated) = 12.7
• COC(=O)/C=C/C(=O)Nc1cccc(OCCCSC(=S)N2CCCCC2)c1 = 13
• COC(=O)/C=C/C(=O)Nc1cccc(OCCSC(=S)N2CCCCC2)c1 = 21.3
• COC(=O)/C=C/C(=O)Nc1cccc(OCCCCSC(=S)N2CCCCC2)c1 = 15.5

Please fill in: Papp at 18 h reported for COC(=O)/C=C/C(=O)Nc1cccc(OCCCCSC(=S)N2CCCC2)c1 = 10.4

Item: COC(=O)/C=C/C(=O)Nc1cccc(OCCCCSC(=S)N2CCCCC2C)c1 (configuration not stated) | Papp at 18 h: 17.9

* * *

- assayed_target: Acetylcholinesterase (Homo sapiens)
- Sequence (P22303 whole entry): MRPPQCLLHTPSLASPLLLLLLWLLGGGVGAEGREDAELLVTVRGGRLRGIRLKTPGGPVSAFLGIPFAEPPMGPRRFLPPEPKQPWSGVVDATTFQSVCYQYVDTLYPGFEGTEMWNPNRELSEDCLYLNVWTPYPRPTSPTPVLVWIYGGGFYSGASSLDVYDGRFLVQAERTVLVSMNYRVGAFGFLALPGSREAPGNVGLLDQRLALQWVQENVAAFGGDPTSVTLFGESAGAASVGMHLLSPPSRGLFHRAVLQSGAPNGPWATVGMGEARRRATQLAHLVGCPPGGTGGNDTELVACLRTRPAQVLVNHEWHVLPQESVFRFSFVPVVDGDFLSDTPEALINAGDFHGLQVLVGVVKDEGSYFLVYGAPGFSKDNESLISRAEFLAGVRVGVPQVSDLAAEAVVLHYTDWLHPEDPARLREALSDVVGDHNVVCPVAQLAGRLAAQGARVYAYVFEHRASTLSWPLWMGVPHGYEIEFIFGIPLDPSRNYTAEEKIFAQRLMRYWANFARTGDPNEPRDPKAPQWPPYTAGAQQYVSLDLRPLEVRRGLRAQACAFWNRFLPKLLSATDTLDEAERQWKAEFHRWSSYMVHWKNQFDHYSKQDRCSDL
observation_type: pIC50
Notebook: values listed as pIC50 are -log10 of the concentration (mol/L).

* COC(=O)/C=C/C(=O)Nc1cccc(OCCCSC(=S)N2CCCCC2)c1 | 5.70
* COC(=O)/C=C/C(=O)Nc1cccc(OCCCCSC(=S)N2CCCC2)c1 | 5.22
* COC(=O)/C=C/C(=O)Nc1cccc(OCCCCSC(=S)N2CCCCC2)c1 | 6.68
* COC(=O)/C=C/C(=O)Nc1cccc(OCCSC(=S)N2CCCCC2)c1 | 5.86
* COC(=O)/C=C/C(=O)Nc1cccc(OCCCCSC(=S)N2CCCCC2C)c1 (stereo unspecified) | 7.28

The compound COC(=O)/C=C/C(=O)Nc1ccc(OCCCCSC(=S)N2CCCCC2C)cc1 (stereo unspecified) , tested on Acetylcholinesterase (Homo sapiens), showed pIC50 of 6.42

* * *

- assayed_target: Cholinesterase (Equus caballus) (UniProt P81908)
- Sequence (P81908 whole entry): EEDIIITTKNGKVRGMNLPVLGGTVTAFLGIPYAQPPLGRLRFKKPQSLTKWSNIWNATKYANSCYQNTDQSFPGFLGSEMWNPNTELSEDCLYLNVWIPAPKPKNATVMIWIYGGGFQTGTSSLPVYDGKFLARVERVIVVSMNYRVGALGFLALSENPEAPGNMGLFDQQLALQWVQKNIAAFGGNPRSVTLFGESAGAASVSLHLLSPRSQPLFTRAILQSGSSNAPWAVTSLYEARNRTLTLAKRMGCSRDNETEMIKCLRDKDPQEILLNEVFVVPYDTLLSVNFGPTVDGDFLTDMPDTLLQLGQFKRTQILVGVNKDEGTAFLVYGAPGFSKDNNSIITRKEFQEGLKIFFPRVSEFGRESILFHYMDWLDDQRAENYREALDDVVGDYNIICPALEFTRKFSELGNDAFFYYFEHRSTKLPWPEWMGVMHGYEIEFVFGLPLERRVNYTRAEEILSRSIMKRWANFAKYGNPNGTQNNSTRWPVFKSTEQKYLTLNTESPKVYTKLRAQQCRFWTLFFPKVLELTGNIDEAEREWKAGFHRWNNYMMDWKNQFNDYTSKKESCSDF
- procedure_summary: Inhibition of equine serum BuChE using butyrylthiocholine iodide as substrate at 10 uM preincubated for 5 mins followed by substrate addition by DTNB reagent based Ellman's method relative to control
- Format: cell-free
Please note: TRUE applies when inhibition is 8% or greater, and FALSE applies otherwise.

The examples below pair each entry with its known result.
• COC(=O)/C=C/C(=O)Nc1cccc(OCCCCSC(=S)N2CCC(C)CC2)c1 = TRUE
• COC(=O)/C=C/C(=O)Nc1cccc(OCCCCSC(=S)N2CCC(O)CC2)c1 = TRUE
• COC(=O)/C=C/C(=O)Nc1cccc(OCCCCSC(=S)N2CCOCC2)c1 = FALSE
• COC(=O)/C=C/C(=O)Nc1cccc(OCCCCCSC(=S)N2CCCCC2)c1 = FALSE
• COC(=O)/C=C/C(=O)Nc1ccc(OCCCCSC(=S)N2CCCCC2C)cc1 (stereo not given) = TRUE
• COC(=O)/C=C/C(=O)Nc1cccc(OCCCCSC(=S)N2C(C)CCCC2C)c1 (stereo not given) = FALSE

Input: Could you please find out whether COC(=O)/C=C/C(=O)Nc1cccc(OCCCCCCSC(=S)N2CCCCC2)c1 has inhibition that meets 8% or exceeds it?
Output: FALSE

Input: Quick check, inhibition >= 8%? COC(=O)/C=C/C(=O)Nc1cccc(OCCCCSC(=S)N2CCCCC2C)c1 (stereo not given)
Output: FALSE

Input: // inclusive: inhibition at least 8%? input: COC(=O)/C=C/C(=O)Nc1cccc(OCCCCSC(=S)N2CCCC2)c1
Output: TRUE

* * *

Listing of recorded inhibition by entry.
- assayed_target: UniProt P06276
- procedure_summary: Inhibition of human BuChE using butyrylthiocholine iodide as substrate at 10 uM preincubated for 5 mins followed by substrate addition by DTNB reagent based Ellman's method relative to control

Item COC(=O)/C=C/C(=O)Nc1cccc(OCCCCSC(=S)N2CCCC2)c1 was tested on UniProt P06276; the reported inhibition is < 5%

* * *

- procedure_summary: Drug degradation in serum (unknown origin) incubated for 12 hrs by HPLC analysis
- Type: ADME, cell-free
- measurement_conditions: read-out: Drug degradation
observation_type: metabolised at 12 h (%)
Provide only the numeric value, understood in %.

Entry COC(=O)/C=C/C(=O)Nc1cccc(OCCCCSC(=S)N2CCCCC2C)c1 (stereo unspecified) , metabolised at 12 h reported as 50

* * *

Recorded inhibition values for a group of compounds are listed next.
- assayed_target: Cholinesterase (Homo sapiens)
- procedure_summary: Inhibition of human BuChE using butyrylthiocholine iodide as substrate at 10 uM preincubated for 5 mins followed by substrate addition by DTNB reagent based Ellman's method relative to control
# unit: % | format: bare number

* COC(=O)/C=C/C(=O)Nc1cccc(OCCCSC(=S)N2CCCCC2)c1 | 7.06

Switching to the query record.
The reported inhibition of the compound COC(=O)/C=C/C(=O)Nc1cccc(OCCSC(=S)N2CCCCC2)c1 was 6.83

* * *

- assayed_target: Cholinesterase (Homo sapiens) (UniProt P06276)
- Sequence (P06276 whole entry): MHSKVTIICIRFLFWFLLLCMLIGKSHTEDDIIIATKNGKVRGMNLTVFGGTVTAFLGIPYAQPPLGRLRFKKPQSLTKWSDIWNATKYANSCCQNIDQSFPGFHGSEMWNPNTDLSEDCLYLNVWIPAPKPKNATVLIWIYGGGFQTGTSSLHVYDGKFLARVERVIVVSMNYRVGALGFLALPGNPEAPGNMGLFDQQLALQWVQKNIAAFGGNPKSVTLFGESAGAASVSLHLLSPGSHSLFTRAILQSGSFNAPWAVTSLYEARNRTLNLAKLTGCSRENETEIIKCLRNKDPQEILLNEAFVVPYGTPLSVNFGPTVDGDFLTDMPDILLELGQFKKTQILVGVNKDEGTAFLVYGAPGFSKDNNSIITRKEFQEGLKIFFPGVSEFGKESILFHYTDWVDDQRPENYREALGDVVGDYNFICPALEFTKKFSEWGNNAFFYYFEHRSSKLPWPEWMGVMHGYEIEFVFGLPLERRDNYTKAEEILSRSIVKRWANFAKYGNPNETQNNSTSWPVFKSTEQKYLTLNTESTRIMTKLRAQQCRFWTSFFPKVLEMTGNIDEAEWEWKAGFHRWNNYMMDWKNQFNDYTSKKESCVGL
- procedure_summary: Inhibition of human BuChE using butyrylthiocholine iodide as substrate at 10 uM preincubated for 5 mins followed by substrate addition by DTNB reagent based Ellman's method relative to control
Listed molecules paired with reported inhibition

Recorded results for 2 molecules are shown here.
- COC(=O)/C=C/C(=O)Nc1cccc(OCCCCSC(=S)N2CCCCC2)c1: < 5%
- COC(=O)/C=C/C(=O)Nc1cccc(OCCCCSC(=S)N2CCCCC2C)c1 (stereo not drawn): < 5%

Now look at this one.
Reported inhibition (Cholinesterase (Homo sapiens) (UniProt P06276)) for entry COC(=O)/C=C/C(=O)Nc1ccc(OCCCCSC(=S)N2CCCCC2C)cc1 (stereo not drawn) is < 5%
